Recorded inhibition at 10 µM values for a group of compounds are listed next.
Molecular target: B1R receptor of the rat (CHO K1 cells stably transfected with the B1R gene of the rat) (Rattus norvegicus)
Construct: expressed in transfected cells; host or cells: CHO K1 cells (Chinese hamster ovary), stably transfected
Sequence (P97583 1-337): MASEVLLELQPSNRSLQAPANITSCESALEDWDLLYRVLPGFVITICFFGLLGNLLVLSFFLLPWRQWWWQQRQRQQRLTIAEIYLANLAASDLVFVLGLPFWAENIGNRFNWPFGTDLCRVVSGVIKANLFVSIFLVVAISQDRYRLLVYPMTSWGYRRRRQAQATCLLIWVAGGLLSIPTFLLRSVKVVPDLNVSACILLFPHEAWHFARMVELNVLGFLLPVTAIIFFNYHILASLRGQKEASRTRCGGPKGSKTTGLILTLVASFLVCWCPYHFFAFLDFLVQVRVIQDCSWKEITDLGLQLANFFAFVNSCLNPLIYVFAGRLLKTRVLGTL
Assay: Functional study on the bradykinin receptor 1 (B1R), Ca2+ fluorescence (Fluo-4) FLIPR/Novostar assay, rB1R cells
Assay type: cell-based
Details: CHO-K1, 10 μM, read-out: % Inhibition (r-B1R) at 10 μM
property measured: inhibition at 10 µM (%)

Cc1cc(N2CCC(N(C)C(=O)c3ccc4c(c3)C(NC(=O)CCC3CCCC3)CC4)CC2)cc(C)n1 (stereo not shown)	110
CN(C(=O)c1ccc2c(c1)C(NC(=O)c1cnccc1C(F)(F)F)CC2(C)C)C1CCN(c2ccncc2)CC1 (stereo not shown)	104
CN(C(=O)c1ccc2c(c1)C(NC(=O)Nc1cc(Cl)cc(Cl)c1)CCC2)C1CCN(c2ccncc2)CC1 (stereo not shown)	61
CN(C(=O)c1ccc2c(c1)C(NC(=O)Nc1cccc(Cl)c1)CC2(C)C)C1CCN(c2ccncc2)CC1 (stereo not shown)	63
COCC(=O)N(C)C1CCc2ccc(C(=O)N(C)C3CCN(c4cc(C)nc(C)c4)CC3)cc21 (stereo not shown)	84
COCC(=O)NC1CCc2ccc(C(=O)N(C)C3CCN(c4ccncc4)CC3)cc21 (stereo not shown)	89
CN(C(=O)c1ccc2c(c1)C(NC(=O)Nc1ccc(F)c(Cl)c1)CC2(C)C)C1CCN(c2ccncc2)CC1 (stereo not shown)	52
Cc1ccc(NC(=O)N(C)C2CCc3ccc(C(=O)N(C)C4CCN(c5cc(C)nc(C)c5)CC4)cc32)c(C)c1 (stereo not shown)	57
CN(C(=O)c1ccc2c(c1)C(NC(=O)Nc1ccc(Cl)cc1Cl)CCC2)C1CCN(c2ccncc2)CC1 (stereo not shown)	82
CN(C(=O)c1ccc2c(c1)C(NC(=O)c1sccc1Cl)CC2)C1CCN(c2ccncc2)CC1 (stereo not shown)	103
CN(C(=O)c1ccc2c(c1)C(NC(=O)c1sccc1Cl)CC2(C)C)C1CCN(c2ccncc2)CC1 (stereo not shown)	104
Cc1cc(N2CCC(N(C)C(=O)c3ccc4c(c3)C(N(C)C(=O)c3cc(C(F)(F)F)ccc3Cl)CC4)CC2)cc(C)n1 (stereo not shown)	112
CN(C(=O)c1ccc2c(c1)C(NC(=O)CC(C)(C)C)CCO2)C1CCN(c2ccncc2)CC1 (stereo not shown)	111
